molecular target: T1, Recombinant Human DLL4 (delta-like protein 4) (human, UniProt Q9NR61 27-524); assay: ECL (MSD) multispot binding assay, antigen spotted on plate, Fab in solution;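 also: purified Fab incubated 1 h at 20 °C, detected via TAG-labelled antibody electrochemiluminescence, antigen spot compared with the blank in the same well, ratio at least 4 counted as hit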
T1 construct: Bought recombinant human DLL4 (R&D Systems Cat#1506-D4/CF); also called rHuman DLL4
Test Readout: ECL signal
Give bare numbers.

Take a look at these entries with their results.
- Binder: "Fab VH1-46_IGHD6-6*01_IGHJ1*01 S102A/S103P/S104F/H111F (APFF) & L6_IGKJ1*01 S30T (Fab, V domains shown, Fab made in E. coli; The constant parts (CH1 with His6 and Flag tags from plasmid A, kappa CL from plasmid C) are not added here; also called APFF & S30T) VH: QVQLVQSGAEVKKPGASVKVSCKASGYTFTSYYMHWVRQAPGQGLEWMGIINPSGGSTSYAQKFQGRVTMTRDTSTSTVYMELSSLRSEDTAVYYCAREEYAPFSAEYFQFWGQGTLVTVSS VL: EIVLTQSPATLSLSPGERATLSCRASQSVTSYLAWYQQKPGQAPRLLIYDASNRATGIPARFSGSGSGTDFTLTISSLEPEDFAVYYCQQRSNWPPWTFGQGTKVEIKR"
  ECL signal: 136000
- Binder: "Fab VH1-46_IGHD6-6*01_IGHJ1*01 S102A/S103P/S104F/H111F (APFF) & L6_IGKJ1*01 S30V (Fab, V domains shown, Fab made in E. coli; The constant parts (CH1 with His6 and Flag tags from plasmid A, kappa CL from plasmid C) are not added here; also called APFF & S30V) VH: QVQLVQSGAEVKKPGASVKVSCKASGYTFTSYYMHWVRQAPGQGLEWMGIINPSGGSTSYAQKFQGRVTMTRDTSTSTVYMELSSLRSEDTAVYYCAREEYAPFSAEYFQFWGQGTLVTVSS VL: EIVLTQSPATLSLSPGERATLSCRASQSVVSYLAWYQQKPGQAPRLLIYDASNRATGIPARFSGSGSGTDFTLTISSLEPEDFAVYYCQQRSNWPPWTFGQGTKVEIKR"
  ECL signal: 141000
- Binder: "Fab VH1-46_IGHD6-6*01_IGHJ1*01 S102A/S103P/S104F/H111F (APFF) & L6_IGKJ1*01 S31K (Fab, V domains shown, Fab made in E. coli; The constant parts (CH1 with His6 and Flag tags from plasmid A, kappa CL from plasmid C) are not added here; also called APFF & S31K) VH: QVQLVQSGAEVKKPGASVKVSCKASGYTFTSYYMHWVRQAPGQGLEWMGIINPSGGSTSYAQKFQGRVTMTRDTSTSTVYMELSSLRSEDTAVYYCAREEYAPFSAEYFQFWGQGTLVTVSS VL: EIVLTQSPATLSLSPGERATLSCRASQSVSKYLAWYQQKPGQAPRLLIYDASNRATGIPARFSGSGSGTDFTLTISSLEPEDFAVYYCQQRSNWPPWTFGQGTKVEIKR"
  ECL signal: 179000

Field: ECL signal. Fill in for each record below.
1. Fab VH1-46_IGHD6-6*01_IGHJ1*01 S102A/S103P/S104F/H111F (APFF) & L6_IGKJ1*01 S31N (Fab, V domains shown, Fab made in E. coli; The constant parts (CH1 with His6 and Flag tags from plasmid A, kappa CL from plasmid C) are not added here; also called APFF & S31N) VH: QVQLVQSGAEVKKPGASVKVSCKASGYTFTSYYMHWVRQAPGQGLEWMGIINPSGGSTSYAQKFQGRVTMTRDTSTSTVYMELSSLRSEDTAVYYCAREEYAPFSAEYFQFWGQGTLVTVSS VL: EIVLTQSPATLSLSPGERATLSCRASQSVSNYLAWYQQKPGQAPRLLIYDASNRATGIPARFSGSGSGTDFTLTISSLEPEDFAVYYCQQRSNWPPWTFGQGTKVEIKR
2. Fab VH1-46_IGHD6-6*01_IGHJ1*01 S102A/S103P/S104F/H111F (APFF) & L6_IGKJ1*01 S30P (Fab, V domains shown, Fab made in E. coli; The constant parts (CH1 with His6 and Flag tags from plasmid A, kappa CL from plasmid C) are not added here; also called APFF & S30P) VH: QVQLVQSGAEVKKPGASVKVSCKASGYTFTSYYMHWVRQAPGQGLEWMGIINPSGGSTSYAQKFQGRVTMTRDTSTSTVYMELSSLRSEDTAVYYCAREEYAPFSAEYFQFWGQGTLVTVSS VL: EIVLTQSPATLSLSPGERATLSCRASQSVPSYLAWYQQKPGQAPRLLIYDASNRATGIPARFSGSGSGTDFTLTISSLEPEDFAVYYCQQRSNWPPWTFGQGTKVEIKR

1: 178000; 2: 1260

All figures here come from patent US20120316071A1.
